test system: Fusarium oxysporum; experiment: Antifungal activity against Fusarium oxysporum; format: functional
endpoint: MIC (µg/mL)

O=C(Cn1ncc2cc([N+](=O)[O-])ccc21)N/N=C/c1cccc(Br)c1 :: 15
O=C(Cn1ncc2cc([N+](=O)[O-])ccc21)N/N=C/c1ccccc1[N+](=O)[O-] :: 11
O=C(Cn1ncc2cc([N+](=O)[O-])ccc21)NN1C(=O)CSC1c1ccccc1 (stereo not given) :: 15
O=C(Cn1ncc2cc([N+](=O)[O-])ccc21)NN1C(=O)CSC1c1ccc(Cl)cc1 (stereo not given) :: 11
O=C(Cn1ncc2cc([N+](=O)[O-])ccc21)NN1C(=O)CSC1c1ccccc1Cl (stereo not given) :: 11

###

In this section, each of the compounds is paired with its reported zone of inhibition at 50 µg/mL.
tested on: Salmonella typhi; test: Antibacterial activity against Salmonella typhi at 50 ug/mL; details: read-out: IZ
Express it in mm; write the number only.

O=C(Cn1ncc2cc([N+](=O)[O-])ccc21)N/N=C/c1ccccc1 :: 12.7

Exercise: I'd like to know its zone of inhibition at 50 µg/mL. The compound in question is O=C(Cn1ncc2cc([N+](=O)[O-])ccc21)N/N=C/c1ccccc1O
Key: 13.8

Exercise: What do you have for O=C(Cn1ncc2cc([N+](=O)[O-])ccc21)NN1C(=O)CSC1c1ccccc1Cl (centres undefined) ?
Key: 19.2

Exercise: What do you have for O=C(Cn1ncc2cc([N+](=O)[O-])ccc21)NN1C(=O)CSC1c1ccccc1O (centres undefined) ?
Key: 16
